Form field: PBM E-score (one value per entry).
Target: Ecm22 (UniProt Q05958)
Sequence: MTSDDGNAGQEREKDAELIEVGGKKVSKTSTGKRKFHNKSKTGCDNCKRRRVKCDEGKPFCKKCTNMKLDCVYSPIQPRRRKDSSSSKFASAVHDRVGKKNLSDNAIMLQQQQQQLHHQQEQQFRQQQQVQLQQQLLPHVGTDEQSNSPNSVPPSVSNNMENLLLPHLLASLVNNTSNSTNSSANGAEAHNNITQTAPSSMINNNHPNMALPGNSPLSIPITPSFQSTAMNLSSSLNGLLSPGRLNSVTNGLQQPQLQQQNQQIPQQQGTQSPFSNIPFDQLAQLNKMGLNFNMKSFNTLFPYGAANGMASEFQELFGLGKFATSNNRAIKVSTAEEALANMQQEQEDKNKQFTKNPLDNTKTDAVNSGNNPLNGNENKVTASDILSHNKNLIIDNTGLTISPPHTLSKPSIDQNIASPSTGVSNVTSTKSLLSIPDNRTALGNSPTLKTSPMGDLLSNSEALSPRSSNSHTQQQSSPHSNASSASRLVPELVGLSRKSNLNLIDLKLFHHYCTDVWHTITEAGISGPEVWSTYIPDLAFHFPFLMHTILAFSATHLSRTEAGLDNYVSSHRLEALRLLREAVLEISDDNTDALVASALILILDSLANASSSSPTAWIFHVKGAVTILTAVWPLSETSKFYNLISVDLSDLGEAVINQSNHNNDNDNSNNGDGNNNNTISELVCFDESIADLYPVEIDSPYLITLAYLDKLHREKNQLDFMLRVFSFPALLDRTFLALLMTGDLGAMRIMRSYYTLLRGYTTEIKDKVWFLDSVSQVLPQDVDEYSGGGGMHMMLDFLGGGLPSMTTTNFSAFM
Experiment: PBM E-score (8-mer binding enrichment) (E-score (-0.5 to 0.5)); higher = stronger / more preferred TF binding
Conditions: protein concentration: 200 nM; construct: GST-full length
Whole data set: some 33,000 sequences, median “E-score (-0.5 to 0.5)” near -0.041, cut for the highest 2% near 0.37. The entries come from a sample that favours the highest values as a whole.
Answer with the value's number alone.

>>> result_number("AATACGCT")
0.121
>>> result_number("TACGAGAA")
0.462
>>> result_number("CACGAGAA")
0.143
>>> result_number("AACGAGAA")
0.424

Entry under review: CAGAACGA . Reported PBM E-score? 0.379

What about this sequence? CCTCGTCG 0.218

* * *

Form field: PBM E-score (one value per entry).
Target: Ecm22 (UniProt Q05958)
Sequence: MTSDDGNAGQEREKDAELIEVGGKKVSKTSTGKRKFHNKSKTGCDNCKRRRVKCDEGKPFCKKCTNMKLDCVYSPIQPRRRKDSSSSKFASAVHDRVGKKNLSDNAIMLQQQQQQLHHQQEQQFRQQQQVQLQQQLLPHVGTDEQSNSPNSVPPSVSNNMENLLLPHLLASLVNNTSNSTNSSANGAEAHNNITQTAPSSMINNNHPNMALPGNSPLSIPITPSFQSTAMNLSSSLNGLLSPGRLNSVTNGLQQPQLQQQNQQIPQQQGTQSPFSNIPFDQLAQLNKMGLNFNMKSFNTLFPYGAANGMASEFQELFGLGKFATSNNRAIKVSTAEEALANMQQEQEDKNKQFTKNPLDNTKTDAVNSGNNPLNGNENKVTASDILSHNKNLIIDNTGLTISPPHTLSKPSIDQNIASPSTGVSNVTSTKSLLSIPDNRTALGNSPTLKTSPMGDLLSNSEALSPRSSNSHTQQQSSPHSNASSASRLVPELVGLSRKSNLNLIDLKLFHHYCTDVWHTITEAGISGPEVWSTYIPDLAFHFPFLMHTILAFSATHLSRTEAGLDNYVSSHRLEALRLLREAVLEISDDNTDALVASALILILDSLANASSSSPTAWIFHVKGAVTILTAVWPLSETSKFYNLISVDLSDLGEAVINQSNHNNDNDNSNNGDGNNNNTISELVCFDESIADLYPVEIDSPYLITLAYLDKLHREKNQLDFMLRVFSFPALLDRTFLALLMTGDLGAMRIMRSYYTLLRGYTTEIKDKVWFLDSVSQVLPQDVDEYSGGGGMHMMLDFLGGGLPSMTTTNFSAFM
Assay: PBM E-score (8-mer binding enrichment) (E-score (-0.5 to 0.5)); higher = stronger / more preferred TF binding
Details: protein concentration: 200 nM; construct: GST-full length
Over roughly 33,000 sequences, “E-score (-0.5 to 0.5)” has its median near -0.041; the highest 2% begin near 0.37. What follows is part of a selection rich in the highest values, with near analogues and random picks from the rest.
Answer with the value's number alone.

Examples from the recorded data:
>>> result_number("CAGCCGGC")
0.0272
>>> result_number("ACGAGCTA")
0.39
>>> result_number("AAGGAGGC")
-0.319
>>> result_number("GACACTCC")
-0.0444
>>> result_number("GGTATACA")
-0.21
>>> result_number("CCGAGCTC")
0.219
>>> result_number("CCGCGACG")
0.0789
>>> result_number("GCCCGTGA")
-0.115

Enter reported PBM E-score observed with Ecm22 (UniProt Q05958) for ACGTATTC 0.144

What about this sequence? AGGGAACG 0.465

What about this sequence? GACGATCA -0.0466

* * *

Biological target: Ecm22 (UniProt Q05958)
Sequence: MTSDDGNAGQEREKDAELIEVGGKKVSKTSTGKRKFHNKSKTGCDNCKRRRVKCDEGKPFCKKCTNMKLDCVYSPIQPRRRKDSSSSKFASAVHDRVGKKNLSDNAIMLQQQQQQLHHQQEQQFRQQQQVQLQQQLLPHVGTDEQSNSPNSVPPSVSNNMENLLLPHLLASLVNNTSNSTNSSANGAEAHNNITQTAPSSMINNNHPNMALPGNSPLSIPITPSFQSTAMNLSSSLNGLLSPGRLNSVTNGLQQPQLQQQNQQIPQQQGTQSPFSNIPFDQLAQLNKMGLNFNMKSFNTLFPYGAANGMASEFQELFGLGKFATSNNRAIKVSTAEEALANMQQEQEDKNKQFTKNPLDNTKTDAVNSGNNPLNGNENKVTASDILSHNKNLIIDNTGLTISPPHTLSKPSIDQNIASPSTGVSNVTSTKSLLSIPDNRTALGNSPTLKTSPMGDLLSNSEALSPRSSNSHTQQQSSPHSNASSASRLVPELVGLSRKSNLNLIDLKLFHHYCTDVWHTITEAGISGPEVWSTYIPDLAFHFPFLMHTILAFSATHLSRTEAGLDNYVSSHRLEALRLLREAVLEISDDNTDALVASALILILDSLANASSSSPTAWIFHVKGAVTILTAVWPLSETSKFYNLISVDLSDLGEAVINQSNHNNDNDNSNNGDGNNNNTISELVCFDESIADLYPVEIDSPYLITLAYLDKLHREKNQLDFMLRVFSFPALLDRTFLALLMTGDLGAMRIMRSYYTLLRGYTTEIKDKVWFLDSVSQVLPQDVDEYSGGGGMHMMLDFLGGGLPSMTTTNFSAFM
Assay: PBM E-score (8-mer binding enrichment) (E-score (-0.5 to 0.5)); higher = stronger / more preferred TF binding
Settings: protein concentration: 200 nM; construct: GST-full length
In all, about 33,000 sequences were measured (“E-score (-0.5 to 0.5)”: median about -0.041, highest 2% from about 0.37 on). Shown is part of a subset that was picked to be rich in the highest values.
value kind: PBM E-score
Answer with the value's number alone.

Examples from the recorded data:
>>> result_number("AGACGACA")
0.0702
>>> result_number("CGACGACC")
0.154
>>> result_number("GCACGACA")
0.114
>>> result_number("AGACGACC")
0.0158
>>> result_number("AATGTACG")
0.331

Let's switch to this sequence now.
Enter reported PBM E-score observed with Ecm22 (UniProt Q05958) for CCATTTGC -0.0821

* * *

Form field: PBM E-score (one value per entry).
Target: Ecm22 (UniProt Q05958)
Sequence: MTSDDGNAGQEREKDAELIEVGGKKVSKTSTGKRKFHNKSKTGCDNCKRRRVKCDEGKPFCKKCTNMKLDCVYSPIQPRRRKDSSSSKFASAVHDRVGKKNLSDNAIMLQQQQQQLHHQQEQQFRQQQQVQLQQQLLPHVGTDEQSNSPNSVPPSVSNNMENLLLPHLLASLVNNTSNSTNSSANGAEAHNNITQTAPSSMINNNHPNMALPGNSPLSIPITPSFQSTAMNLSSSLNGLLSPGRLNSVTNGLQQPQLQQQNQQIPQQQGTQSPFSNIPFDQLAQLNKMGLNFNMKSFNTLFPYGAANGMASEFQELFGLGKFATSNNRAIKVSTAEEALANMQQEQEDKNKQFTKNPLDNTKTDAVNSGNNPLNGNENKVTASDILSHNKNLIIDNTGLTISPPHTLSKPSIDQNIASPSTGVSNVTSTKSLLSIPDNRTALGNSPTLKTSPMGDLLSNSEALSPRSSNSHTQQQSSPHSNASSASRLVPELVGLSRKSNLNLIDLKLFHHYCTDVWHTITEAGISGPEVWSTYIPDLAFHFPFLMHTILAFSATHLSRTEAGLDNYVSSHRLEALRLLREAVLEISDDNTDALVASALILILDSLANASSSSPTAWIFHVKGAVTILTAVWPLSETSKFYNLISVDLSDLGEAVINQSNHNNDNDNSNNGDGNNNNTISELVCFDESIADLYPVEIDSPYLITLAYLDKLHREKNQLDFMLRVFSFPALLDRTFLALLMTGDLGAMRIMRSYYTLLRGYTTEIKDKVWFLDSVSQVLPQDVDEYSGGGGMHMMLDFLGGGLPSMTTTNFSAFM
Experiment: PBM E-score (8-mer binding enrichment) (E-score (-0.5 to 0.5)); higher = stronger / more preferred TF binding
Conditions: protein concentration: 200 nM; construct: GST-full length
In all, about 33,000 sequences were measured (“E-score (-0.5 to 0.5)”: median about -0.041, highest 2% from about 0.37 on). The entries come from a sample that favours the highest values as a whole.
Answer with the value's number alone.

Examples from the recorded data:
>>> result_number("GCCGTAGC")
0.163
>>> result_number("GCCGTGCA")
-0.305
>>> result_number("ATTACTTC")
-0.0783
>>> result_number("ACCCTCGC")
0.194
>>> result_number("CAAAACGA")
0.278

Entry under review: ACGTTATG . Reported PBM E-score? 0.163

What about this sequence? ACCGTACG 0.385

What about this sequence? ACCCTCGA -0.16

The values you see were collected from the supplement of paper PMC3334620.
